biological target: ATP-dependent translocase ABCB1 (Homo sapiens); assay: Reversal of P-glycoprotein-mediated multidrug resistance in human MDR1 gene transfected mouse L5178Y cells assessed as fluorescence activity ratio at 200 uM by rhodamine 123 accumulation assay; assay type: cell-based
Sequence (P08183 whole entry): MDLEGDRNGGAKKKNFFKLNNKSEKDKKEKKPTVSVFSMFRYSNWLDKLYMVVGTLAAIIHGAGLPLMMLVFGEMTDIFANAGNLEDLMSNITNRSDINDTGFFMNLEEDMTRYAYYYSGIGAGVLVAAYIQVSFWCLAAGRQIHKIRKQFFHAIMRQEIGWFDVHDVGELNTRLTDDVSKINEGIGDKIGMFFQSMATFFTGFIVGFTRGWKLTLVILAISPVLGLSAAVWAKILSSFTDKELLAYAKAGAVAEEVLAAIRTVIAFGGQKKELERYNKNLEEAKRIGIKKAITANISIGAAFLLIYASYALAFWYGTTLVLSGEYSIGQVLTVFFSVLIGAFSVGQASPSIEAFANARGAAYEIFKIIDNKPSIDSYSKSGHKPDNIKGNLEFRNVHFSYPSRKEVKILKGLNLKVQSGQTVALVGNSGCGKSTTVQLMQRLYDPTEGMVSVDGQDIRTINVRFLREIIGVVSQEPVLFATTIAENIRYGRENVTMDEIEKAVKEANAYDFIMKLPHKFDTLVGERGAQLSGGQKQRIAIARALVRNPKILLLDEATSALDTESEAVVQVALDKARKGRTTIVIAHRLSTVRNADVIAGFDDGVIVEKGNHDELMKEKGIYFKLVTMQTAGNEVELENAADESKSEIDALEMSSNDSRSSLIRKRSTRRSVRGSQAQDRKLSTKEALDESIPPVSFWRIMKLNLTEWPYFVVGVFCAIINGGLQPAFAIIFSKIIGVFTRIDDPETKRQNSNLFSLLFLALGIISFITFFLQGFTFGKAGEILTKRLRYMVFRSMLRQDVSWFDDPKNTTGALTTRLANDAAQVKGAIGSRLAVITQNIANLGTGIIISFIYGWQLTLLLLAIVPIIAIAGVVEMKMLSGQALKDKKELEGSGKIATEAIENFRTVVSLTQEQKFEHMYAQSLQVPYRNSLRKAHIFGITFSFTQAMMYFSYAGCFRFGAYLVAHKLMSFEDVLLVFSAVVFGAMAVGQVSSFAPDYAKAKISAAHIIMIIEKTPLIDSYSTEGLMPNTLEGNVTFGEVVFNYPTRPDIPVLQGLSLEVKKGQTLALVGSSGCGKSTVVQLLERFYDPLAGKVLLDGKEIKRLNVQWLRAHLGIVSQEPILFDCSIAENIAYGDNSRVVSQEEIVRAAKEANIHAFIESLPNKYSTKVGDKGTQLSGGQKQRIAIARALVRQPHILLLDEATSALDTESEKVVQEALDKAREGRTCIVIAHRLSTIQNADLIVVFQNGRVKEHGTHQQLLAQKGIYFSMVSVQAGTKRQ
measured_metric: Ratio
Write no unit; give the number alone.

Recorded Ratio, per entry:
INSERT INTO measurements (smiles_text, measured_metric, result_number) VALUES
  ('Cc1ccc(/C=C/C(=O)c2c(C)[n+]([O-])c3ccccc3[n+]2[O-])cc1', 'Ratio', 27.2),
  ('COc1ccc(/C=C/C(=O)c2c(C)[n+]([O-])c3ccccc3[n+]2[O-])cc1OC', 'Ratio', 23),
  ('CC(=O)c1c(C)[n+]([O-])c2ccccc2[n+]1[O-]', 'Ratio', 1.04),
  ('Cc1c(C(=O)/C=C/c2ccccc2)[n+]([O-])c2ccccc2[n+]1[O-]', 'Ratio', 36.8),
  ('Cc1c(C(=O)/C=C/c2ccc(F)cc2)[n+]([O-])c2ccccc2[n+]1[O-]', 'Ratio', 25.8),
  ('Cc1c(C(=O)/C=C/c2ccc3c(c2)OCO3)[n+]([O-])c2ccccc2[n+]1[O-]', 'Ratio', 3.67);

For ATP-dependent translocase ABCB1 (Homo sapiens), provide Ratio of Cc1c(C(=O)/C=C/c2cccc([N+](=O)[O-])c2)[n+]([O-])c2ccccc2[n+]1[O-] please.
3.75

Likewise for Cc1c(C(=O)/C=C/c2ccc(Cl)c(Cl)c2)[n+]([O-])c2ccccc2[n+]1[O-] ?
11.9
